Sourced from the supplement of paper PMC10065799

Target: FGFR3 (UniProt P22607)
Sequence (P22607 whole entry, looked up): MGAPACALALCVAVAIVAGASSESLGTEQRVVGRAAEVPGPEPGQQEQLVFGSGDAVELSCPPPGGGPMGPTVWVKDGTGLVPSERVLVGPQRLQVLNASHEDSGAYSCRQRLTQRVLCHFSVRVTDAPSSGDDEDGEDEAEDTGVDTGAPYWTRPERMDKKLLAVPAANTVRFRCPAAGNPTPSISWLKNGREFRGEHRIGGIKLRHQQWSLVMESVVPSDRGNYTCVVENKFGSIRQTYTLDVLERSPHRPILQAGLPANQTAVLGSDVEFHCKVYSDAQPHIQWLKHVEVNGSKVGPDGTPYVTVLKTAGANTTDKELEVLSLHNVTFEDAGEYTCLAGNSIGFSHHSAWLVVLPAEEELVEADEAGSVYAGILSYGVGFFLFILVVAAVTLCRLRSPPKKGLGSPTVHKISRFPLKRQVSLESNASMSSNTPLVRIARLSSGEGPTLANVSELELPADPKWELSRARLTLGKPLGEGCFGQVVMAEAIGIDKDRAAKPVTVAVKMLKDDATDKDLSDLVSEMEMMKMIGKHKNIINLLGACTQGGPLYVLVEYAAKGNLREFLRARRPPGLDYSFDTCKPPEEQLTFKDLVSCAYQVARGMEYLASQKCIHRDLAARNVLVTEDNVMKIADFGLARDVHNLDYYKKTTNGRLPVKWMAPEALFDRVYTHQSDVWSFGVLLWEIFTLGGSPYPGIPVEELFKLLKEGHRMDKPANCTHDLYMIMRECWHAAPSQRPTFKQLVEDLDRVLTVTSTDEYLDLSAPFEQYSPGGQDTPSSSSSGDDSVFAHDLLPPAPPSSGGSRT
Assay: phosphorylation enrichment, bacterial display (enrichment ratio); higher = better substrate or ligand; peptides without Tyr show the background;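 further: 11-residue human phosphosite peptides and single-mutation variants displayed on the E. coli surface, counted by deep sequencing, each peptide's frequency after selection divided by its frequency in the unselected input library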;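 further: frequency after pTyr selection over input frequency; kinase dosed for 20-30% of maximal phosphorylation in three min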
just bin them by phosphorylation enrichment: interval 1 (below 0.7), interval 2 (0.7 to below 0.9), interval 3 (0.9 or more)

These recorded examples may help you get a feel for the data.
IVRSLYEDQED [VHL_Y185_L188Q] : interval 2
GHLYACDWISI [BEST1_Y227_Y227C] : interval 3

Query sequence follows.
[Q] Bin this entry: IIEDPYYGNDS [ACP1_Y132]
[A] interval 2

* * *

System: Fer (mouse)
Assay: phosphorylation enrichment, bacterial display (enrichment ratio); higher = better substrate or ligand; peptides without Tyr show the background
Examples of sequences with documented phosphorylation enrichment follow.
# respond with the number and nothing more

GFILMYDITNE [RAB3C_Y110] : 0.692

[Q] Identify phosphorylation enrichment associated with the sequence MHDSNSVSKGS [PDGFRA_Y849_Y849S]
[A] 0.392

[Q] Identify phosphorylation enrichment associated with the sequence KKDGPYDVVVL [PARK7_Y67_E64D]
[A] 3.37

[Q] Identify phosphorylation enrichment associated with the sequence VPTSKYRGGGG [HBA1_Y141_L137P]
[A] 0.327

[Q] Identify phosphorylation enrichment associated with the sequence PEIIAYQPYGK [PRKCG_Y529]
[A] 0.537

[Q] Identify phosphorylation enrichment associated with the sequence MAPQMYESHLP [NCAPD2_Y6_F8S]
[A] 9.41

[Q] Identify phosphorylation enrichment associated with the sequence SRASYYRKGGC [ALK_Y1283_Y1278S]
[A] 0.326
